Cited source: PubChem BioAssay (NCI)

# Tested on: SK-MEL-2 melanoma
# Experimental Protocol: NCI tumour cell line growth inhibition, 48 h; in the data active = GI50 below about 0.43 µM; inactive = the rest
Can you answer with just one of these options? class 1 = active, class 0 = inactive

Solved entries:
C/C(=N/N=C(\[O-])c1ccncc1)C(F)(F)F.C/C(=N\N=C(/[O-])c1ccncc1)C(F)(F)F.[Ni+2] = class 0
Nc1nc(Nc2ccccc2SSc2ccccc2Nc2nc(N)nc(C(Cl)(Cl)Cl)n2)nc(C(Cl)(Cl)Cl)n1 = class 0
COc1cc2nc(-c3cc(F)ccc3O)nc(N[C@@H]3CNC[C@H]3C(C)(C)O)c2cc1OC = class 0
c1ccc2cc(-c3n(Cc4ccc5ccccc5n4)c4ccccc4[n+]3Cc3ccc4ccccc4n3)ccc2c1 = class 1

Input: I would be grateful if you could indicate the recorded call for `C(=N/N(Cc1ccccc1)Cc1ccccc1)/c1ccccc1` .
Output: class 0

Input: And for `N#CCCN1C/C(=C/c2ccc(Cl)cc2)C(=O)/C(=C/c2ccc(Cl)cc2)C1` ?
Output: class 0

Input: How about this molecule: `O=C(/C=C/c1cccc(O)c1)c1cccc(-n2cc(-c3ccccc3)[nH]c2=O)c1`
Output: class 0

Input: Now try `C[CH2][Sn]([CH2]C)([O]C(=O)c1ccccc1OC)[O][Sn]([CH2]C)([CH2]C)[O]C(=O)c1ccccc1OC` .
Output: class 0

Input: Next molecule: COC1=C(OC)C(=O)C(SC/C=C(\C)CCCC(C)CCCC(C)CCCC(C)C)=CC1=O (centres undefined)
Output: class 0

Input: // same read-out, input: `Cc1cc(N(CCCNc2ccnc3cc(Cl)ccc23)Cc2ccco2)nc(N2CCN(C)CC2)n1`
Output: class 0

Input: Same thing, different molecule: `COc1cc2c(cc1OCCCCN1CCN(C(=S)SCCC(C#N)(c3ccccc3)c3ccccc3)CC1)N=C[C@@H]1CCCN1C2=O`
Output: class 0

Input: Similarly, N#CC1=C(/N=C/c2ccccc2)Oc2c(ccc3ccccc23)C1c1ccccc1 (centres undefined) ?
Output: class 0

Input: What about this molecule? `Cc1cc(C#Cc2ccc(C(C)(C)C)cc2)ccc1-n1c(/C=C/c2ccc(O)cc2O)nc2ccccc2c1=O`
Output: class 0

Input: // same read-out, input: COc1ccc(NC(=O)C2CCC(CNS(=O)(=O)c3ccccc3)CC2)cc1OC (centres undefined)
Output: class 0

Input: And `CCCCCCNC(=O)Oc1ccc(/C(=C(\C)c2ccc(Cl)cc2)c2ccc(OCCN3CCCCC3)cc2)cc1` ?
Output: class 0

----------
Measured GI50 accompanies every entry in the list below.
# System: CAKI-1 renal
# Experimental Protocol: NCI tumour cell line growth inhibition, 48 h

COC1C(O)C(CO)OC(OC2C(O)COC(OC3C(C)OC(OC4C(O[C@H]5CC[C@@]6(C)C(CC=C7[C@H]6CCC68C(=O)O[C@@](C)(CCCC(C)C)[C@H]6[C@@H](OC(C)=O)C[C@@]78C)C5(C)C)OCC(OS(=O)(=O)O)C4O)C(OC4OCC(O)C(O)C4O)C3O)C2O)C1O (stereo partly drawn) = 0.303 µM

Input: // query GI50 value for entry `Cc1cc(C#Cc2ccc(C(C)(C)C)cc2)ccc1-n1c(/C=C/c2ccc(O)cc2O)nc2ccccc2c1=O`
Output: 2.87 µM

----------
Each entry below lists one item and its recorded TGI value.
# Test system: A498 renal
# Experimental Protocol: NCI tumour cell line growth inhibition, 48 h

Worked cases, answers included:
O=c1[nH]c(=S)nc2nc3c4ccc[nH]c4c4ccccc4c3nc12 = > 100 µM
CC1(C)CNCC(C)(OCc2ccccc2)C(=O)NC(C)(C)CNCC(C)(OCc2ccccc2)C(=O)N1 (stereo unspecified) = > 10 µM
COC(=O)CCCCC(=O)c1c(C)[nH]c(/C=C2\N=C(c3ccc[nH]3)C=C2OC)c1C = 6.39 µM
COc1ccc(OC)c(N(CN2C(=O)CCC2C(=O)O)C(C)=O)c1 (stereo unspecified) = > 100 µM
CCOC(=O)N1N=C(/C(C)=N/OC)C(C)S1=O (stereo unspecified) = > 100 µM

Input: Field request: TGI | item: O=C1OC(C(O)CO)C(O)=C1O (stereo unspecified)
Output: > 10000 µM
